# test.target: human F508del-CFTR (Homo sapiens, UniProt P13569, DEL508-508)
# Sequence (P13569 with tags, fused parts or gaps DEL508-508): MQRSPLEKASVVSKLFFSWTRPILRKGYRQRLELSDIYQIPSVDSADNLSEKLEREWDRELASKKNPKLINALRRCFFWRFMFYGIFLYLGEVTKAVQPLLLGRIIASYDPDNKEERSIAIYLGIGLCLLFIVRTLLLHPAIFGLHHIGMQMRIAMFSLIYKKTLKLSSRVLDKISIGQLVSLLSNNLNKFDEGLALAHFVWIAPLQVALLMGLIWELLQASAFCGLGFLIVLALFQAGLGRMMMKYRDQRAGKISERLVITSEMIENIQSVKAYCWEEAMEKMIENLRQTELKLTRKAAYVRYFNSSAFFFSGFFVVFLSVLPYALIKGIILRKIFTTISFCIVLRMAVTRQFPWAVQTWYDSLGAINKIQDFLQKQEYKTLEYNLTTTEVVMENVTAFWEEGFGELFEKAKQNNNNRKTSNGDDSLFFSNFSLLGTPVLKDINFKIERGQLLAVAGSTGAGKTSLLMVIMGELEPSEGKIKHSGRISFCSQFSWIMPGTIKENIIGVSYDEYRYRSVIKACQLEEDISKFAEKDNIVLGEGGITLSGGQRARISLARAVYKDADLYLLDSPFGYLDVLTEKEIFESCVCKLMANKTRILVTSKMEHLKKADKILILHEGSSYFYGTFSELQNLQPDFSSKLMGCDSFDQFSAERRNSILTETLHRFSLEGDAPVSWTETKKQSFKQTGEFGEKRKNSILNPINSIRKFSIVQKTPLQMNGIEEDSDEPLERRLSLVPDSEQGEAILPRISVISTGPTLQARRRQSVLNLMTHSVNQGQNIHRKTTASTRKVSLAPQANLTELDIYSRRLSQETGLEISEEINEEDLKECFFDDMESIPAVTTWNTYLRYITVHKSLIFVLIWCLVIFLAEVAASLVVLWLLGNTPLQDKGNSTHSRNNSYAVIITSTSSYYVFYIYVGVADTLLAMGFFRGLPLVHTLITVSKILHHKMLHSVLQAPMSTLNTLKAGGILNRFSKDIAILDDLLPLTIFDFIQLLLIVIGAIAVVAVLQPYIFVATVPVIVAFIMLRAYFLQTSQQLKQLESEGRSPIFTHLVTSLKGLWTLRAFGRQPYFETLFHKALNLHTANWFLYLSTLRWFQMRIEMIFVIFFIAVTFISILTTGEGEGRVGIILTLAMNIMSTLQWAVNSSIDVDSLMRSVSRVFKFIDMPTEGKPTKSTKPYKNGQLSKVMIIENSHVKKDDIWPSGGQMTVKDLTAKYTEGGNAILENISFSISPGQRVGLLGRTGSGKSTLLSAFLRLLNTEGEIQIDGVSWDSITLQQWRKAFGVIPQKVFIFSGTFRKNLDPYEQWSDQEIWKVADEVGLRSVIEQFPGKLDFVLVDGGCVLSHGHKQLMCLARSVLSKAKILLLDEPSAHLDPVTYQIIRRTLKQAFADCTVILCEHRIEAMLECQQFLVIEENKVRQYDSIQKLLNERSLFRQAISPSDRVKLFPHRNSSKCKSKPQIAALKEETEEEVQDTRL
# test.summary: F508del-CFTR cell surface expression (corrector activity), DiscoveRx ß-galactosidase complementation chemiluminescence assay in recombinant U2OS cell line
# applied.conditions: U2OS, in relation to the Emax of the corrector lumacaftor (=100%); U2OS cell line, 16h compound incubation; arithmetic mean values
readout.label: Emax (%)
Numbers only, in %.

# compound, value
rows = [
    ("COc1cccc(CCNC(=O)[C@@H]2CC(=O)N(C)[C@@H](CC(C)C)C(=O)N3CCN(C(C)C)C[C@@H]3C(=O)N[C@H](Cc3ccccc3)COc3cnc4ccccc4c3C(=O)N2)c1", 333),
    ("CC(C)C[C@H]1C(=O)N2CCCC[C@@H]2C(=O)N[C@H](Cc2ccccc2)COc2cnc3ccccc3c2C(=O)N[C@H](C(=O)NCCc2c(F)cccc2F)CC(=O)N1C", 335),
    ("Cc1ccc(CCNC(=O)[C@@H]2CC(=O)N(C)[C@@H](CC(C)C)C(=O)N3CCOC[C@@H]3C(=O)N[C@H](Cc3ccccc3)COc3cnc4ccccc4c3C(=O)N2)cc1", 228),
    ("Cc1nc2ccc3c(c2o1)C(=O)N[C@H](C(=O)NCCc1ccc2c(c1)OCO2)CC(=O)N(C)[C@@H](CC(C)C)C(=O)N(CCC1CCCCC1)CC(=O)N[C@H](Cc1ccccc1)CO3", 312),
    ("CN1C(=O)C[C@@H](C(=O)NCCc2ccc3c(c2)OCO3)NC(=O)c2c(ccc3ccccc23)OC[C@@H](Cc2ccccc2)NC(=O)CN(C[C@H]2CCCCO2)C(=O)[C@@H]1CC1CCCC1 (racemic)", 144),
    ("CCc1ccc(CCNC(=O)[C@@H]2CC(=O)N(C)[C@@H](CC(C)C)C(=O)N(C)CC(=O)N[C@H](Cc3ccccc3)COc3cccc(OC)c3C(=O)N2)cc1", 142),
    ("CC(C)C[C@H]1C(=O)N(CCOC(C)(C)C)CC(=O)N[C@H](Cc2ccccc2)COc2ccc3ccccc3c2C(=O)N[C@H](C(=O)NCCc2ccc3c(c2)OCO3)CC(=O)N1C", 262),
    ("Cc1cccc(F)c1CCNC(=O)[C@@H]1CC(=O)N(C)[C@@H](CC(C)C)C(=O)N2CCCC[C@@H]2C(=O)N[C@H](Cc2ccccc2)COc2cnc3ccccc3c2C(=O)N1", 204),
    ("CC(C)C[C@H]1C(=O)N(CCC2CCCCC2)CC(=O)N[C@H](Cc2ccccc2)COc2ccc3ccccc3c2C(=O)N[C@H](C(=O)NCCc2ccc3c(c2)OCO3)CC(=O)N1C", 275),
]

Then this compound:
stdin: # return recorded Emax for input "CC(C)C[C@H]1C(=O)N2CCCC[C@@H]2C(=O)N[C@H](Cc2ccccc2)COc2cnc3ccccc3c2C(=O)N[C@H](C(=O)NCCc2nc(-c3ccccc3)no2)CC(=O)N1C"
stdout: 283

----------
# test.target: human F508del-CFTR (Homo sapiens, UniProt P13569, DEL508-508)
# test.summary: F508del-CFTR cell surface expression (corrector activity), DiscoveRx ß-galactosidase complementation chemiluminescence assay in recombinant U2OS cell line;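 further: U2OS cells co-expressing ProLink-tagged F508del-CFTR and a membrane-anchored enzyme acceptor, where more surface CFTR restores β-galactosidase activity measured by chemiluminescence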
# applied.conditions: U2OS, in relation to the Emax of the corrector lumacaftor (=100%); U2OS cells, 16h compound incubation; arithmetic mean
Could you please report measured Emax for the items listed next?
Numbers only, in %.

# compound, Emax / %
records = [
    ("COc1cc(CCNC(=O)[C@@H]2CC(=O)N(C)[C@@H](CC(C)C)C(=O)N(C)[C@H](CC(C)(C)C)C(=O)N[C@H](Cc3ccccc3)COc3cc(C)nc(OC)c3C(=O)N2)on1", 336),
    ("Cc1cc2c3c(ccc2cn1)OC[C@@H](Cc1ccccc1)NC(=O)[C@@H](CC(F)(F)F)N(C)C(=O)[C@H](CC(C)C)N(C)C(=O)C[C@@H](C(=O)NCCn1nnc(C2CC2)n1)NC3=O", 413),
    ("Cc1cc2c(c3cccnc13)C(=O)N[C@H](C(=O)NCCc1nc(C3CC3)no1)CC(=O)N(C)[C@@H](CC(C)C)C(=O)N(C)[C@H](Cc1nc(C(F)(F)F)no1)C(=O)N[C@H](Cc1ccccc1)CO2", 469),
    ("COc1cc(CCNC(=O)[C@@H]2CC(=O)N(C)[C@@H](CC(C)C)C(=O)N3CCCC[C@@H]3C(=O)N[C@H](Cc3ccccc3)COc3ccc4ncc(F)cc4c3C(=O)N2)on1 (single isomer, unassigned)", 294),
]

stdin: Read the entry "COc1noc(CCNC(=O)[C@@H]2CC(=O)N(C)[C@@H](CC(C)C)C(=O)N(C)[C@H](CC(F)F)C(=O)N[C@H](Cc3ccccc3)COc3ccc4cnc(C)cc4c3C(=O)N2)n1" and write its reported Emax.
stdout: 491
